test: soluble on expression in E. coli; label from the status in PepcDB or PDB records
PROPERTY_MEASURED: soluble on expression in E. coli

>>> reported_measurement("MGVFRTRFTETFGVEHPIMQGGMQWVGRAEMAAAVANAGGLATLSALTQPSPEALAAEIARCRELTDRPFGVNLTLLPTQKPVPYAEYRAAIIEAGIRVVETAGNDPGEHIAEFRRHGVKVIHKCTAVRHALKAERLGVDAVSIDGFECAGHPGEDDIPGLVLLPAAANRLRVPIIASGGFADGRGLVAALALGADAINMGTRFLATRECPIHPAVKAAIRAADERSTDLIMRSLRNTARVARNAISQEVLAIEARGGAGYADIAALVSGQRGRQVYQQGDTDLGIWSAGMVQGLIDDEPACAELLRDIVEQARQLVRQRLEGMLAGV")
"soluble"
>>> reported_measurement("MGSDKIHHHHHHMKLRSWEFYDRIARAYDSMYETPKWKLYHRLIGSFLEEYLKNPCRVLDLGGGTGKWSLFLQERGFEVVLVDPSKEMLEVAREKGVKNVVEAKAEDLPFPSGAFEAVLALGDVLSYVENKDKAFSEIRRVLVPDGLLIATVDNFYTFLQQMIEKDAWDQITRFLKTQTTSVGTTLFSFNSYAFKPEDLDSLEGFETVDIRGIGVMEYPDERISEREETIFRLEQELSRDRNIIWKADHIFFVLKKKRGA")
"soluble"

* * *

test: soluble on expression in E. coli; label from the status in PepcDB or PDB records
PROPERTY_MEASURED: soluble on expression in E. coli

>>> reported_measurement("MDMMWISYHLKKGGRRLRIRIGIDIGSTHTDAVALEGKELIVADKVMTTPDLTTGLLNAISRVMKKLGERKNEVDTLMIGTTHGLNALHQGKGLNRVATIRIGLPAGEGVPPVFDWPEQLSNFVTYRYMVRGGHEYTGEEIVELDEGKIKEIAEAINGKVDAIAISSIFSVVNSSHEIRAREILREKG")
"not soluble"
>>> reported_measurement("MRTVALGIVAMACLVAIAHGGNFFQDAEVSWGQGRGKIVDGGRGLDLTLDRSSGSGFQSKSEYLFGKIDMQIKLVPGGWWNQELSDMSYRRMRWVQRKFMIYNYCTDAKRFPQGTPAECKLR")
"not soluble"
>>> reported_measurement("GYKKIPKKKLKDLMVELYVADGHFANIYDPKLTDSVREAVYTNLFAKYGTTRMDYDSTLMWYGRHDLEEYIAICQSVRDELEKQRIDLDKQITLEREKKGMDMLDGSFYELDSINMLAGDSTCFYRPEMPFLNRSFIITPGTAYKEGTRLEFVTRLRGLQLRPDATMEMFLQLVCTDNTVLTVSRPVNPGINMLTTSVPDSASVSRVYGYLRGFPDSAGIMSLSPFVIDSFSLRKF")
"not soluble"

* * *

assay: soluble on expression in E. coli; label from the status in PepcDB or PDB records
PROPERTY_MEASURED: soluble on expression in E. coli

Worked examples, 5 sequences total:
>>> reported_measurement("NGFQKEIRGQLLNVAPHAEIGYIDNTDTDWRNLLRFTENRKGILAAAPYVSNQALLANAGEIRGVQMRGILPSEERKVVEYGDKMPAGKFEDLIPGEFDIILGVGLAEALGAEVGNKVTVITPEGNVTPAGVVPRLKQFTVVGLVKTGVYEVDNSLAMTHIQDARVLYRLDKEVAGLRLKLADPQNAPALTATLIPEAQRDAVWVRDWTYSNRSYFEAVELEKR")
"soluble"
>>> reported_measurement("MSLDYQGYLIDLDGTIYLGKEPIPAGKRFVERLQEKDLPFLFVTNNTTKSPETVAQRLANEFDIHVPASLVYTATLATIDYMKEANRGKKVFVIGEAGLIDLILEAGFEWDETNPDYVVVGLDTELSYEKVVLATLAIQKGALFIGTNPDKNIPTERGLLPGAGSVVTFVETATQTKPVYIGKPKAIIMERAIAHLGVEKEQVIMVGDNYETDIQSGIQNGIDSLLVTSGFTPKSAVPTLPTPPTYVVDSLDEWTFEGHHHHHH")
"soluble"
>>> reported_measurement("METGTPLIAETIALTEKKVAMALDDIIKLAKRKTNVNKGKKPRREKNKNQNFNGAARNNTSNVRHHMNSLSAVRQGAVGKRRSRFQGIQFPVTTNIARKASTAAPLDFRGRAFNGGRMTSANQSRLIAPPVQNISVQARVNAKRHEVDQKVEHRGGKRKTLDSRFASMKEQRMTINNYGVTVQVPRLPPWVRARRFSQ")
"not soluble"
>>> reported_measurement("MVNSKVLNTLEYQQVKQQLAPYLVSATGQQALNELHPMTSVADIQRALDETNDGAEVYRLKGGIPVARLADIKPHMKRLAIGATLNGSELGQVGRVLRTTRAITRFFAELLEDAPELEHHHHHH")
"not soluble"
>>> reported_measurement("MRKPILAALTLAGLGLAQEFITIGSGSTTGVYFPVATGIAKLVNDANVGIRANARSTGGSVANINAINAGEFEMALAQNDIAYYAYQGCCIPAFEGKPVKTIRALAALYPEVVHVVARKDAGIRTVADLKGKRVVVGDVGSGTEQNARQILEAYGLTFDDLGQAIRVSASQGIQLMQDKRADALFYTVGLGASAIQQLALTTPIALVAVDLNRIQAIAKKYPFYVGFNIPGGTYKGVDVTTPTVAVQAMLIASERLSEETVYKFMKAVFGNLEAFKKIHPNLERFFGLEKAVKGLPIPLHPGAERFYKEAGVLK")
"soluble"

As a next step, examine the sequence that follows.
State the recorded soluble on expression in E. coli for this entry: MGSDKIHHHHHHMESLKKCFDLQGKEIVSIVGSGGKTSLMWALAKTYRKEAVLVSTTTKIGFPQRQLYDYFYTNHFEKITPNICGITLAGTAINNQTKLTMPAMTSFQTLFQHFTKVFLEADGSKQRPLKGWSSYEPVILKETTTTIGVLPISVIGQKIDETTIHRLPLFLELTDAQLQEPITETLLAQLIDHPKGLFKESQGQRILCLNQTHTRREFVQAMNVCLQLPKSCFEKLDKIIACNMELEKGLILWEKSVKTSKKN
not soluble

* * *

assay: soluble on expression in E. coli; label from the status in PepcDB or PDB records
PROPERTY_MEASURED: soluble on expression in E. coli

>>> reported_measurement("MTEQLPNCPECGSAYAYEDRGLFICPECGHEWSPTEEVAEEGLVVKDSNGNLLADGDSVTVIKDLKVKGASGAIKQGTKVKNIRLVEGDHNIDCKVDGFGPMKLKSEFVKKN")
"not soluble"
>>> reported_measurement("MSSITKSRSTKKLSQVIVEQLIETIQSGEFKIGEKIPTELELIEQFDVSRSVIREAITELRSLGFVETRHGIGTFVKEQNIEQNFLLSNASLETINDIVALLELRISLESEAVFLASERRKNKHLEKMKIALNDFEAHISSGENDGTVKADYDFHIAIAEASGNQYFVDFLKYLGEKIIPRARVKSIEQSPENREEYLKTVHHDHVNIYNAILDQDGLLARQMMRAHLSKSIKKFKQ")
"not soluble"
>>> reported_measurement("MGSDKIHHHHHHVSKILIIYSSVHGQTRKLCDFMQRELEALEHSVTCASIDNPPAMEGFDKIVLGASIRHGKHNPRVYDFIRENIKVLQEKASSFFSVSLVARKPAKNTPETNPYMQAFLAKSPWQPKLLAVFGGNLDYQGYNALDRNIIRFIMWITKGPTAPDTKVEYTDWDKVKHYAQQVDAL")
"not soluble"
>>> reported_measurement("MSLVSYVEVIKNGETISSCFQPFQKNENYGTITSANEQITPVIFHNLIMDMVLPKVVPIKGNKVTKMSMNLIDGFDCFYSTDDHDPKTVYVCFTLVDMPKILPIRILSGLQEYESNATNELLSSHVGQILDSFHEELVEYRNQTLNSSGNGQSSNGNGQNTISDIGDATEDQIKDVIQIMNDNIDKFLERQERVSLLVDKTSQLNSSSNKFRRKAVNIKEIMWWQKVKNITLLTFTIILEGHHHHHH")
"soluble"
>>> reported_measurement("MEREQRHKVIMRTIDRPGITRIDALTELTGVSAVTIHRDLVELEQAGFLARTHGGAKRVPKRGTPQPFAVRQAEDREAKRILAQATAQLIADDEAVIFDNGTTCQAVAQELAGRPITALCLSLHSAVALGSRAGTNVFIPGGPVENDSLALSGPAVITALRDFSADVVILGSCSTSLEHGLATTTYDDAENKRAAIHAATRRILVVSARKLNHVSTFRFADVADLHQLVTTSDAPREILAEIRDLGVQVITVPAPDEQRSLEHHHHHH")
"soluble"
>>> reported_measurement("MGSDKIHHHHHHLIPFFLDLVSRTDEARRAFELHPVVTHAAANGMTLQRYRRLLLELYHVVWHFNTVSAAGASRLQDTHKQVRYFLYEHMHEESGHEEWVLADLEQMGVTRDIALNHRPSHYTLALVGYYYYAADRKHPASVLGMLYALEVIASVYGGTLTSAVKESLLLDDERGVSFISSHATLDAEHMADLKTVLDTIEDDEAKDAIEEAVLLTFNHLTHIMVEAHLEEGDISGAPAVNAEHFAISAEKAAA")
"not soluble"
>>> reported_measurement("MLLQELHIYSEQSSSNTKVSIKNKDGEILFEYCYSNDAIPTFNPIELLRLSLEGDIGVLFQMKTSISQKSKKDDFRISCEQSRSETSRMNQ")
"not soluble"

As a next step, examine the sequence that follows.
State the recorded soluble on expression in E. coli for this entry: DVDEVLRLCAEGLHDVLGYERVNILMADTARTSLSFVAAVGTADFNPAGVVLPLDQRGGVITKCFTDRQVYMIDDVSAYPTDFRLQSPYDAIRALRSKSFVICPIVVKGEAIGVFAVDNRSSR
not soluble
